Test system: Bacillus subtilis
protocol-notes: Antimicrobial activity against Bacillus subtilis
Type: functional
Consider the following compounds; for each one, report its MIC.
Give bare numbers, in µg/mL.

>>> df
                                   compound       assay_target  experimental_endpoint  units_label  numeric_value
0  O=C(CCN1c2ccccc2Sc2ccc(C(F)(F)F)cc21)NCc1ccc(CN2CCOCCOCCOCCOCC2)cc1  Bacillus subtilis                    MIC        µg/mL            500
1  O=C(CN1c2ccccc2Sc2ccccc21)NCc1ccc(CN2CCCNCCNCCCNCC2)cc1  Bacillus subtilis                    MIC        µg/mL            7.8
2    c1ccc2c(c1)Nc1ccccc1S2 [PHENOTHIAZINE]  Bacillus subtilis                    MIC        µg/mL            500

Now turn to the next compound.
Task: Please tell me: MIC of `O=C(CCN1c2ccccc2Sc2ccccc21)NCc1ccc(CN2CCOCCOCCOCCOCC2)cc1` , system Bacillus subtilis?
Result: 2000

The measurements presented in this section are drawn from ChEMBL document CHEMBL1146323.
